Target: SIX1 homeodomain (reference allele) (human, UniProt Q15475 108-198)
Sequence: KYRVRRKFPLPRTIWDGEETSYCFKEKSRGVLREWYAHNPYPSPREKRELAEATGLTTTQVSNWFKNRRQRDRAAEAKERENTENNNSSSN
Assay: universal protein binding microarray; Universal all-10-mer PBM (8x60K, AMADID 030236), 300 nM GST-tagged protein, Alexa Fluor 488 anti-GST; buffer, salt, pH and temperature not stated (as in Berger); high values mean tight binding
Conditions: protein: ivt; tags: N-terminal GST; dsDNA, one strand shown
The full ranking holds about 33,000 sequences; the median of “e-score” is about -0.053, and the highest 2% start at about 0.38. The sample as a whole holds a higher share of the highest values than the screen did.
Let's look at some sequences and their measured binding signal.
Provide the reading as a plain figure in E-score.

Problem: Name the recorded binding signal for `GGTATTAA` .
Result: 0.366

Problem: Name the recorded binding signal for `ATCGTCTG` .
Result: 0.162

Problem: Name the recorded binding signal for `AATCCGAC` .
Result: 0.189

Problem: Name the recorded binding signal for `CGAATCGA` .
Result: 0.182

* * *

Molecular target: SIX1 homeodomain (reference allele) (human, UniProt Q15475 108-198)
Sequence: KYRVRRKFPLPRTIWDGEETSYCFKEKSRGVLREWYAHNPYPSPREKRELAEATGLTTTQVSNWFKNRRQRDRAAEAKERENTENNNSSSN
Experiment: universal protein binding microarray; Universal all-10-mer PBM (8x60K, AMADID 030236), 300 nM GST-tagged protein, Alexa Fluor 488 anti-GST; buffer, salt, pH and temperature not stated (as in Berger); high values mean tight binding
Details: protein: ivt; tags: N-terminal GST; dsDNA, one strand shown
Whole data set: some 33,000 sequences, median “e-score” near -0.053, cut for the highest 2% near 0.38. The list comes from a sample in which the highest values are over-represented; it also holds close analogues and randomly drawn sequences.
recorded-endpoint: binding signal (E-score)
Provide the reading as a plain figure in E-score.

Problem: Name the recorded binding signal for `ATACGCAC` .
Result: 0.254

Problem: Name the recorded binding signal for `GGTATCAC` .
Result: 0.497

Problem: Name the recorded binding signal for `CCTATCAA` .
Result: 0.288

Problem: Name the recorded binding signal for `CTAAGATC` .
Result: 0.207

Problem: Name the recorded binding signal for `CGTATAAC` .
Result: 0.204

Problem: Name the recorded binding signal for `ACCGATAC` .
Result: 0.453

Problem: Name the recorded binding signal for `CGTATTAA` .
Result: 0.222

Problem: Name the recorded binding signal for `TATCTCAA` .
Result: 0.329

New cases:
Problem: Name the recorded binding signal for `CGTATCAA` .
Result: 0.466

Problem: Name the recorded binding signal for `ATCGATCA` .
Result: 0.17

Problem: Name the recorded binding signal for `CGTATTAC` .
Result: 0.26

* * *

Target: SIX1 homeodomain (reference allele) (human, UniProt Q15475 108-198)
Sequence: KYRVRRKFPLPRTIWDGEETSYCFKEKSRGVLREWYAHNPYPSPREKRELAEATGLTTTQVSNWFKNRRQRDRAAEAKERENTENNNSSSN
Experiment: universal protein binding microarray; Universal all-10-mer PBM (8x60K, AMADID 030236), 300 nM GST-tagged protein, Alexa Fluor 488 anti-GST; buffer, salt, pH and temperature not stated (as in Berger); high values mean tight binding
Details: protein: ivt; tags: N-terminal GST; dsDNA, one strand shown
In all, about 33,000 sequences were measured (“e-score”: median about -0.053, highest 2% from about 0.38 on). The entries come from a sample that favours the highest values as a whole.
Please assign a class to every record based on measured binding signal, with ranges bucket 1 = under 0.2 E-score, bucket 2 = from 0.2 E-score up to 0.3 E-score, bucket 3 = 0.3 E-score and over

Known results for sequences:
Problem: Sort `CAACACCG` into one of the categories.
Result: bucket 2

Problem: Sort `CATATTAC` into one of the categories.
Result: bucket 2

Problem: Sort `CATCTCAG` into one of the categories.
Result: bucket 2

Problem: Sort `GATAAAAC` into one of the categories.
Result: bucket 1

Problem: Sort `GAATAATC` into one of the categories.
Result: bucket 2

Problem: Sort `ATAATACG` into one of the categories.
Result: bucket 3

Problem: Sort `CTAATACC` into one of the categories.
Result: bucket 2

Problem: Sort `ATAATACC` into one of the categories.
Result: bucket 3

Problem: Sort `ATAGGGAT` into one of the categories.
Result: bucket 3

Problem: Sort `CATAACAC` into one of the categories.
Result: bucket 1

New cases:
Problem: Sort `CATATCAC` into one of the categories.
Result: bucket 3

Problem: Sort `TAATAATA` into one of the categories.
Result: bucket 2
